Collected remaining at 3 h, 0.2 mM values appear next to each entry.
Experiment: Stability of peptides incubated with rat brain homogenate (RP-HPLC / LC-MS)
Format: in vitro ADME
Conditions: pH 7.6, 37° C., 3 hours, read-out: portion of the amount of sample used left after 3 Hours
Where a SMILES comes first, the peptide text is derived from it. [ ]: non-standard residue; d: D form.
Give the number; % is assumed, so skip it.

Examples with answers:
{"compound": "CC(C)[C@@H](N)C(=O)NCC(=O)N[C@H](CCC(=O)O)C(=O)N[C@H](CCCCN)C(N)=O [vGekNH2] (H-[dV]G[dE][dK]-NH2; N-terminus assumed)", "u": "%", "remaining at 3 h, 0.2 mM": 70}
{"compound": "CC(C)[C@H](NC(=O)CNC(=O)[C@H](CCC(=O)O)NC(=O)[C@@H](N)CCCCN)C(N)=O [KEGVNH2] (H-KEGV-NH2; N-terminus assumed)", "u": "%", "remaining at 3 h, 0.2 mM": 0}

Moving on to the next compound.
Form: compound = CC(C)[C@H](NC(=O)CNC(=O)[C@H](CCC(=O)O)NC(=O)[C@@H](N)CCCCN)C(=O)O [KEGVOH] (H-KEGV-OH; N-terminus assumed) ; remaining at 3 h, 0.2 mM = 0
